assay.procedure: Tolerability in Sprague-Dawley rats, body and organ weights (Example 21)
Assay type: in vivo
test.conditions: male Sprague-Dawley rats, 50 mg/kg s.c. weekly for 6 weeks (7 doses), end of study
Marks after values point to notes of the source that are not given here. Strand notation (5' to 3'): a small letter for the sugar, then the base; units joined by * are phosphorothioate-linked, units joined directly phosphodiester-linked; [ ] holds rarer units or linkages, { } end groups; capitals alone tell only the bases. e = 2'-O-(2-methoxyethyl) (MOE); k = constrained ethyl (cEt); [5mC] = 5-methylcytosine; d = 2'-deoxy (DNA)
parameter.measured: Liver weight

{"substance": "1198874 (kA*kA*dG*dT*dG*dT*dA*dT*dG*dT*d[5mC]*kA*eG*kA*eA*kG) [compound 1198874]", "Liver weight": "20 g"}
{"substance": "1198615 (kT*kT*kA*dA*dA*dG*dT*dG*dT*dA*dT*dG*kT*k[5mC]*kA*eG) [compound 1198615]", "Liver weight": "16 g"}
{"substance": "1074756 (kG*k[5mC]*kA*d[5mC]*dT*dT*dT*dT*dA*d[5mC]*dA*dT*dT*kA*kG*kG) [compound 1074756]", "Liver weight": "21* g"}
{"substance": "1198873 (kA*kG*dT*dG*dT*dA*dT*dG*dT*d[5mC]*dA*kG*eA*kA*eG*kA; antisense) [compound 1198873]", "Liver weight": "19 g"}

Now take the following substance into account.
Enquiry: Need Liver weight of 1198439 (AGTGTATGTCAGAAGA; sugar, 5-methylcytosine, phosphorothioate modifications, further chemistry not given here) [compound 1198439] , thanks.
Return: 17* g
